System Name: α-7 nicotinic ACh receptor ion channel (Rattus norvegicus, UniProt Q05941)
Construct: expressed in transfected cells
Sequence (Q05941 23-502): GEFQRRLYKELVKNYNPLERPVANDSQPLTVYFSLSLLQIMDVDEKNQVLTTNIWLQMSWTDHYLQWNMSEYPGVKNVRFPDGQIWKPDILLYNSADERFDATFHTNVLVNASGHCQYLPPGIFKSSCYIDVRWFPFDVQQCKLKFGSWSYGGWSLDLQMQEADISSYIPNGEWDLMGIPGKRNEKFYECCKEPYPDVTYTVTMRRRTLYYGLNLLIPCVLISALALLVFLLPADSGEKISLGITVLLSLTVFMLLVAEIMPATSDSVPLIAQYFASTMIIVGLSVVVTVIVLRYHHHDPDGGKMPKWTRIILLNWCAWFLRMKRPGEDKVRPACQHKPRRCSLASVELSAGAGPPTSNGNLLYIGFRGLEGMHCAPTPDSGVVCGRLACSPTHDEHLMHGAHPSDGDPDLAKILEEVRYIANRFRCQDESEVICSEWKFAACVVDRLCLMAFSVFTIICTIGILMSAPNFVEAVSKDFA
Assay Overview: FLIPR Ca2+-sensitive fluorescence assay of α7 nicotinic acetylcholine receptor channel function (agonist activity) in HEK 293 cells
Format: cell-based
Run Conditions: Table 1; Ca2+ flux, HEK-293 cells expressing the channel
Value Kind: EC50 (nM)
State the answer as a number, implicitly in nM.

Req: State measured EC50 of the compound COc1ccc2c(C(=O)N3C4CC5CCN(C4)CC53)n[nH]c2c1 (stereo not drawn) with α-7 nicotinic ACh receptor ion channel (Rattus norvegicus, UniProt Q05941).
Resp: 260

Req: State, for α-7 nicotinic ACh receptor ion channel (Rattus norvegicus, UniProt Q05941), measured EC50 of the compound listed here: O=C(c1n[nH]c2ccccc12)N1C2CC3CCN(C2)CC31 (stereo not drawn)
Resp: 73

Req: Tell me EC50 of O=C(c1n[nH]c2ccc(Cl)cc12)N1C2CC3CCN(C2)CC31 (stereo not drawn) when tested on α-7 nicotinic ACh receptor ion channel (Rattus norvegicus, UniProt Q05941).
Resp: 590

Req: Report measured EC50 on α-7 nicotinic ACh receptor ion channel (Rattus norvegicus, UniProt Q05941); entry: O=C(c1nsc2ccccc12)N1C2CC3CCN(C2)CC31 (stereo not drawn)
Resp: 7100

Req: Please indicate recorded EC50 of O=C(c1n[nH]c2cc(Cl)ccc12)N1C2CC3CCN(C2)CC31 (stereo not drawn) measured with α-7 nicotinic ACh receptor ion channel (Rattus norvegicus, UniProt Q05941).
Resp: 57
